System: myeloid leukemia patient primary cells Pat.10
EXPERIMENT DESCRIPTION: cell viability (% survival relative to DMSO control); higher = less cytotoxic
SETUP CONDITIONS: 100 nM; 72 h
Answer each item with its documented cell viability.
Give bare numbers, in %.

Worked examples follow.
{"INPUT SMILES": "COc1cc(/C=C/C(=O)N2CCC=CC2=O)cc(OC)c1OC", "cell viability / %": 71.8}
{"INPUT SMILES": "C[C@H](NC(=O)c1sccc1OCc1ccc(Cl)cc1)c1ccccc1", "cell viability / %": 73.5}

Now look at this entry.
# input compound: O=C(C1CC1)N1CC[C@@H](C=C2NNC(=O)N2c2ccc(-c3ccc4occc4c3)cc2)C1 ; wanted: its cell viability
50.2

====

System: MV4-11
EXPERIMENT DESCRIPTION: cell viability (% survival relative to DMSO control, bortezomib = 0%); higher = less cytotoxic
SETUP CONDITIONS: 1000 nM; 72 h
Task for the reader: assign each of the following compounds its reported cell viability.
Numbers only, in %.

For each entry beneath this line, provide reported cell viability.
1. O=C1O/C(=C/Br)CCC1c1cccc2ccccc12 (configuration not stated)
2. CCOP(=O)(OCC)C(=Cc1cc(C(C)(C)C)c(O)c(C(C)(C)C)c1)P(=O)(OCC)OCC
3. CCCCN1C[C@H](O)[C@@H](O)[C@H](O)[C@H]1CO
4. O[C@H]1[C@H]2[C@H](O)CCCN2C[C@H]1O
5. COC(=O)[C@]12CCC(C)(C)C[C@H]1[C@H]1C(=O)C=C3[C@@]4(C)C=C(C#N)C(=O)C(C)(C)[C@@H]4CC[C@@]3(C)[C@]1(C)CC2

1: 92.4; 2: 104; 3: 94.4; 4: 69.8; 5: 94.3

====

Assignment: determine reported cell viability for the given molecules.
System: K-562
EXPERIMENT DESCRIPTION: cell viability (% survival relative to DMSO control, bortezomib = 0%); higher = less cytotoxic
SETUP CONDITIONS: 100 nM; 72 h
One number for each entry, in %.

{"MOLECULE": "NCCCC(N)(C(=O)O)C(F)F (centres undefined) [Difluoromethylornithine]", "cell viability [%]": 97}
{"MOLECULE": "Oc1ccc(Nc2nc(-c3ccc(Cl)cc3)cs2)cc1 [SKI II]", "cell viability [%]": 107}
{"MOLECULE": "O=C(O)C[C@@]1(O)C[C@@H](CCCCCCc2ccc(Cl)cc2Cl)OC1=O", "cell viability [%]": 105}
{"MOLECULE": "Cc1c(-c2ccc(-c3ccccc3F)cc2)nc2ccc(F)cc2c1C(=O)O [Brequinar]", "cell viability [%]": 92.9}
{"MOLECULE": "COc1ccc2c(C(=S)N(C)CC(=O)O)cccc2c1C(F)(F)F [Tolrestat]", "cell viability [%]": 87.4}
{"MOLECULE": "O=C(O)C1=CC(=C(c2ccc(O)c(C(=O)O)c2)c2ccc(O)c(C(=O)O)c2)C=CC1=O [Aurintricarboxylic acid]", "cell viability [%]": 82}

Give cell viability for each of the items listed below.
1. COc1ccc(S(=O)(=O)N2CCN(S(=O)(=O)c3ccc4c(c3)OCCO4)CC2)cc1 [BML283]
2. Cc1coc2c1C(=O)C(=O)c1c-2ccc2c1CCCC2(C)C [Tanshinone IIA]
3. CCOP(=O)(OCC)C(=Cc1cc(C(C)(C)C)c(O)c(C(C)(C)C)c1)P(=O)(OCC)OCC

1. 97.7
2. 104
3. 118

====

Tested on: BV-173
EXPERIMENT DESCRIPTION: cell viability (% survival relative to DMSO control, bortezomib = 0%); higher = less cytotoxic
SETUP CONDITIONS: 100 nM; 72 h
QUANTITY MEASURED: cell viability (%)
One number for each entry, in %.

Study these solved cases before continuing.
{"COMPOUND": "Cc1c(-c2ccc(-c3ccccc3F)cc2)nc2ccc(F)cc2c1C(=O)O", "MEASURED TARGET": "BV-173", "cell viability, %": 93.3}
{"COMPOUND": "N#Cc1ccnc(N2C(=O)CC[C@H]2C(=O)N(c2cncc(F)c2)C(C(=O)NC2CC(F)(F)C2)c2ccccc2Cl)c1 (some centres undefined)", "MEASURED TARGET": "BV-173", "cell viability, %": 95.8}
{"COMPOUND": "CCCCN1C[C@H](O)[C@@H](O)[C@H](O)[C@H]1CO", "MEASURED TARGET": "BV-173", "cell viability, %": 95.6}

Okay, now this compound:
Given the entry CCOP(=O)(OCC)C(=Cc1cc(C(C)(C)C)c(O)c(C(C)(C)C)c1)P(=O)(OCC)OCC , what cell viability was observed with BV-173?
121

====

Test system: myeloid leukemia patient primary cells Pat.10
EXPERIMENT DESCRIPTION: cell viability (% survival relative to DMSO control); higher = less cytotoxic
SETUP CONDITIONS: 1 nM; 72 h
Please provide measured cell viability for the entries that follow.
Numbers only, in %.

Fill in cell viability for each of the 4 compounds listed.
1. COC(=O)[C@]12CCC(C)(C)C[C@H]1[C@H]1C(=O)C=C3[C@@]4(C)C=C(C#N)C(=O)C(C)(C)[C@@H]4CC[C@@]3(C)[C@]1(C)CC2
2. O=C(O)C1=CC(=C(c2ccc(O)c(C(=O)O)c2)c2ccc(O)c(C(=O)O)c2)C=CC1=O
3. COc1cc(/C=C/C(=O)N2CCC=CC2=O)cc(OC)c1OC
4. CN(C)C(=O)n1nnnc1Cc1ccc(-c2ccccc2)cc1

82.4
98.4
79.5
96.5

====

Tested on: K-562
EXPERIMENT DESCRIPTION: cell viability (% survival relative to DMSO control, bortezomib = 0%); higher = less cytotoxic
SETUP CONDITIONS: 10000 nM; 72 h
For each record, write down the corresponding cell viability.

{"COMPOUND": "CCOP(=O)(OCC)C(=Cc1cc(C(C)(C)C)c(O)c(C(C)(C)C)c1)P(=O)(OCC)OCC", "cell viability": "90.1%"}
{"COMPOUND": "O=C(O)Cn1nnc(-c2cc(N3CCC(Oc4cc(F)ccc4Br)CC3)no2)n1", "cell viability": "41.2%"}
{"COMPOUND": "CCCCCCCCCCCC(=O)c1c(O)c(C(=O)CCCCCCCCCCC)c(O)c(C2CC(c3ccc(O)cc3)Oc3cc(O)ccc32)c1O (centres undefined)", "cell viability": "108%"}

We now examine a further compound.
Requested read-out: cell viability. Entry: Oc1ccc(Nc2nc(-c3ccc(Cl)cc3)cs2)cc1
36.8%

====

System: myeloid leukemia patient primary cells Pat.3
EXPERIMENT DESCRIPTION: cell viability (% survival relative to DMSO control); higher = less cytotoxic
SETUP CONDITIONS: 10 nM; 72 h
QUANTITY MEASURED: cell viability (%)
Give bare numbers, in %.

{"INPUT SMILES": "CC[C@@]1(O)C(=O)OCc2c1cc1n(c2=O)Cc2cc3c(CN(C)C)c(O)ccc3nc2-1", "cell viability [%]": 89.8}
{"INPUT SMILES": "C=C(C)[C@H]1Cc2c(ccc3c2O[C@@H]2COc4cc(OC)c(OC)cc4[C@@H]2C3=O)O1", "cell viability [%]": 57.4}
{"INPUT SMILES": "O=C(O)Cn1nnc(-c2cc(N3CCC(Oc4cc(F)ccc4Br)CC3)no2)n1", "cell viability [%]": 98.2}
{"INPUT SMILES": "O=C1c2cc([N+](=O)[O-])ccc2-n2c1nc1ccccc1c2=O", "cell viability [%]": 86.9}

Form field: reported cell viability of Cc1c(-c2ccc(-c3ccccc3F)cc2)nc2ccc(F)cc2c1C(=O)O
58

====

Test system: BV-173
EXPERIMENT DESCRIPTION: cell viability (% survival relative to DMSO control, bortezomib = 0%); higher = less cytotoxic
SETUP CONDITIONS: 1 nM; 72 h
Exercise: state measured cell viability for each of the molecules provided.
Give the number first and the unit second.

Known cell viability results, listed for orientation:
{"MOLECULE": "O=C(O)Cn1nnc(-c2cc(N3CCC(Oc4cc(F)ccc4Br)CC3)no2)n1", "cell viability": "88.1%"}
{"MOLECULE": "Cc1coc2c1C(=O)C(=O)c1c-2ccc2c1CCCC2(C)C", "cell viability": "91.9%"}
{"MOLECULE": "Cc1c(-c2ccc(-c3ccccc3F)cc2)nc2ccc(F)cc2c1C(=O)O", "cell viability": "94.7%"}

Provide cell viability values for the following items, in order.
1. CC(C)c1cc2c(c(O)c1O)[C@@]1(C(=O)O)CCCC(C)(C)[C@@H]1CC2
2. CCCCN1C[C@H](O)[C@@H](O)[C@H](O)[C@H]1CO
3. NC(=O)c1cccc(-c2cccc(OC(=O)NC3CCCCC3)c2)c1
4. COc1ccc(S(=O)(=O)N2CCN(S(=O)(=O)c3ccc4c(c3)OCCO4)CC2)cc1
5. C[C@H](NC(=O)c1sccc1OCc1ccc(Cl)cc1)c1ccccc1
6. NS(=O)(=O)c1ccc([N+](=O)[O-])cc1 [4-Nitrobenzenesulfonamide]

87.5%
90.7%
91%
89.9%
93.5%
101%

Every entry's value here was drawn from the supplement of paper PMC8671470.
